Reported kcat/KM is given for each of the following proteins.
Molecular target: Factor X (FX), P00742
Sequence (P00742 whole entry, looked up): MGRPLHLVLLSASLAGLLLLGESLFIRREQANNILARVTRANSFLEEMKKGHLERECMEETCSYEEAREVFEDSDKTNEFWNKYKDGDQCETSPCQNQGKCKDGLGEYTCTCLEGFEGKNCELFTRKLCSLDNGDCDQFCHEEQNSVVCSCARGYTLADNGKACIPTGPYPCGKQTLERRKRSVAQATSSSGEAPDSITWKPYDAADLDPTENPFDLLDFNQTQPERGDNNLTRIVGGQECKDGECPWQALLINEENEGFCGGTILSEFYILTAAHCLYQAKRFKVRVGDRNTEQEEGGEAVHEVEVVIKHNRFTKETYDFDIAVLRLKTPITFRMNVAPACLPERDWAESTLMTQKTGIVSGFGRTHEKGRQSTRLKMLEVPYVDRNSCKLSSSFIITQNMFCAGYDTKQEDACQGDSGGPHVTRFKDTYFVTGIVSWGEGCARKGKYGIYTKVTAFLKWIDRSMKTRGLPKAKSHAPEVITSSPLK
API: value field is a number in M⁻¹ s⁻¹; no unit string.

The following proteins have reported results that may help.
Which kcat/KM is reported for this protein? FIXa-D203N/F205T/R338E (protein) chain 1: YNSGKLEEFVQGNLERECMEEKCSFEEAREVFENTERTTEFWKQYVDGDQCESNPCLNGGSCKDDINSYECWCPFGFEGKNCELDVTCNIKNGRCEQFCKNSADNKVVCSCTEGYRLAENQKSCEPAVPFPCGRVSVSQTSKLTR chain 2: VVGGEDAKPGQFPWQVVLNGKVNATCGGSIVNEKWIVTAAHCVETGVKITVVAGEHNIEETEHTEQKRNVIRIIPHHNYNAAINKYNHDIALLELDEPLVLNSYVTPICIADKEYTNIFLKFGSGYVSGWGRVFHKGRSALVLQYLRVPLVDRATCLESTKFTIYNNMFCAGFHEGGRDSCQGDSGGPHVTEVEGTSFLTGIISWGEECAMKGKYGIYTKVSRYVNWIKEKTKLT
1e+08

And then FIXa-D203N/F205T/R318Y (protein) chain 1: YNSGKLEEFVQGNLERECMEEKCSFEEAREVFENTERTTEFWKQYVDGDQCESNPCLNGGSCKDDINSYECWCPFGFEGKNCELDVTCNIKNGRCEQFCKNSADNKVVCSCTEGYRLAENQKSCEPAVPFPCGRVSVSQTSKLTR chain 2: VVGGEDAKPGQFPWQVVLNGKVNATCGGSIVNEKWIVTAAHCVETGVKITVVAGEHNIEETEHTEQKRNVIRIIPHHNYNAAINKYNHDIALLELDEPLVLNSYVTPICIADKEYTNIFLKFGSGYVSGWGRVFHKGYSALVLQYLRVPLVDRATCLRSTKFTIYNNMFCAGFHEGGRDSCQGDSGGPHVTEVEGTSFLTGIISWGEECAMKGKYGIYTKVSRYVNWIKEKTKLT , what is it?
2e+07

And then FIXa-K293A/R338A/R403A (protein) chain 1: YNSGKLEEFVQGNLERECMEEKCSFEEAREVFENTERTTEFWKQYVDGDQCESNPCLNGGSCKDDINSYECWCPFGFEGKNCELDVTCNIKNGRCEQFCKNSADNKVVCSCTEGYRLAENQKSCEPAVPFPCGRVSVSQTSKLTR chain 2: VVGGEDAKPGQFPWQVVLNGKVDAFCGGSIVNEKWIVTAAHCVETGVKITVVAGEHNIEETEHTEQKRNVIRIIPHHNYNAAINKYNHDIALLELDEPLVLNSYVTPICIADAEYTNIFLKFGSGYVSGWGRVFHKGRSALVLQYLRVPLVDRATCLASTKFTIYNNMFCAGFHEGGRDSCQGDSGGPHVTEVEGTSFLTGIISWGEECAMKGKYGIYTKVSAYVNWIKEKTKLT , what is it?
2.5e+07

---
Which kcat/KM is reported for this protein? FIXa variant Y155F/R338E/R403E/E410N (protein) chain 1: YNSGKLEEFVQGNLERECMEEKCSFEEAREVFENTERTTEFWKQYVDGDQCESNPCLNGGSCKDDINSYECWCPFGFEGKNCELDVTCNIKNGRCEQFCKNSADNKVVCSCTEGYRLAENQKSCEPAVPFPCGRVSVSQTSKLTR chain 2: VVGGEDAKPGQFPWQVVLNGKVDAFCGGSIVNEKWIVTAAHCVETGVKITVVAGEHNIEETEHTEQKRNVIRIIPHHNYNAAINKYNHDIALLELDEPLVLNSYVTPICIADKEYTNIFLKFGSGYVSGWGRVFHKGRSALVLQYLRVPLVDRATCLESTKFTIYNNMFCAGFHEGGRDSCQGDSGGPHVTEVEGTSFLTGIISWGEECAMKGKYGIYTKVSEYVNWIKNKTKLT
1.8e+08

And then FIXa-D203N/F205T/K228N (protein) chain 1: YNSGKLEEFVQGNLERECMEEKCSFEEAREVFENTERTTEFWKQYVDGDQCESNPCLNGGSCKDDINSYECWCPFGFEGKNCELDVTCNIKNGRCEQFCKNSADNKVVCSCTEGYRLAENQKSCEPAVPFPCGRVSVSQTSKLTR chain 2: VVGGEDAKPGQFPWQVVLNGKVNATCGGSIVNEKWIVTAAHCVETGVNITVVAGEHNIEETEHTEQKRNVIRIIPHHNYNAAINKYNHDIALLELDEPLVLNSYVTPICIADKEYTNIFLKFGSGYVSGWGRVFHKGRSALVLQYLRVPLVDRATCLRSTKFTIYNNMFCAGFHEGGRDSCQGDSGGPHVTEVEGTSFLTGIISWGEECAMKGKYGIYTKVSRYVNWIKEKTKLT , what is it?
1.4e+07

And then FIXa-I251S/R318Y/R338E/R403E/E410N (protein) chain 1: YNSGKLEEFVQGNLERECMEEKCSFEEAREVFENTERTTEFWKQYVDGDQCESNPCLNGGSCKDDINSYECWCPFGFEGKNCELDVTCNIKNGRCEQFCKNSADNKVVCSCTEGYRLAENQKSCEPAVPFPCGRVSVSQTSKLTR chain 2: VVGGEDAKPGQFPWQVVLNGKVDAFCGGSIVNEKWIVTAAHCVETGVKITVVAGEHNIEETEHTEQKRNVSRIIPHHNYNAAINKYNHDIALLELDEPLVLNSYVTPICIADKEYTNIFLKFGSGYVSGWGRVFHKGYSALVLQYLRVPLVDRATCLESTKFTIYNNMFCAGFHEGGRDSCQGDSGGPHVTEVEGTSFLTGIISWGEECAMKGKYGIYTKVSEYVNWIKNKTKLT , what is it?
1.5e+08

And then FIXa-Y155F/I251S/R318Y/R338E/R403E/E410N (protein) chain 1: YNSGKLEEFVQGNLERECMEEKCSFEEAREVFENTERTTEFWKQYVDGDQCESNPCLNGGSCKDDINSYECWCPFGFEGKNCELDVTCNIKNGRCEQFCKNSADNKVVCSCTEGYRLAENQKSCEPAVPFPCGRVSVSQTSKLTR chain 2: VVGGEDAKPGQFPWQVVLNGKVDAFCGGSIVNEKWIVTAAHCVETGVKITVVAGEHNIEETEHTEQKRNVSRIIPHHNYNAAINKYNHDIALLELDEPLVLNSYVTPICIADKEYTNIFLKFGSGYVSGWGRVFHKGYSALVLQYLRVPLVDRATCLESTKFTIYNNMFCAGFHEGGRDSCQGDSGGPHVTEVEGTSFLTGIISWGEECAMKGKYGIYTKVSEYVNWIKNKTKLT , what is it?
1.7e+08
